I'd be grateful if you could share measured MIC for these entries.
Tested on: Francisella tularensis SCHU4
EXPERIMENT_SUMMARY: microbe, parasite or virus in culture
Type: cell-based
SETUP_CONDITIONS: Francisella tularensis, SCHU4, read-out: MIC F. tularensis SCHU4
Reply with just the number (in mg/L).

Which MIC value belongs to CCCCCCc1coc(C=C(C)C(=O)c2c(O)cc(C(C)CC/C=C/NC(=O)OC)oc2=O)c1 (mixture of isomers) [APY19] ?
6

What does the record list as MIC for CCCCOc1cccc(C=C(C)C(=O)c2c(O)cc(C(C)CC/C=C/NC(=O)OC)oc2=O)c1 (mixture of isomers) [APY42] ?
50

Quick one: MIC for CCCCc1ccc(C=C(CC)C(=O)c2c(O)cc(C(C)CC/C=C/NC(=O)OC)oc2=O)s1 (mixture of isomers) [APY21] ?
3

Requested read-out: MIC. Entry: CCCCCCc1ccc(C=C(C)C(=O)c2c(O)cc(C(C)CC/C=C/NC(=O)OC)oc2=O)o1 (mixture of isomers) [APY17]
0.8

Looking for the measured MIC of CCCCCCc1ccc(C=C(C)C(=O)c2c(O)cc(C(C)CC/C=C/NC(=O)OC)oc2=O)s1 (mixture of isomers) [APY15] , can you help?
0.4

* * *

SUBJECT_OF_TEST: M. tuberculosis RNA polymerase core enzyme, M. tuberculosis σ^A (Mycobacterium tuberculosis, UniProt P9WGY7+P9WGY9)
EXPERIMENT_SUMMARY: Fluorescence-detected RNA polymerase assay, M. tuberculosis RNA polymerase
SETUP_CONDITIONS: read-out: IC50 M. tuberculosis RNAP
READOUT_TYPE: IC50 (nM)
Unit nM implied. Number only.

So what's the measured IC50 for this one? CCCCc1ccc(C=C(C)C(=O)c2c(O)cc(C(C)CC/C=C/NC(=O)OC)oc2=O)s1 (mixture of isomers)
300

Dear colleague, I am looking for the recorded IC50 of the following molecule: CCCCCCc1cccc(C=C(C)C(=O)c2c(O)cc(C(C)CC/C=C/NC(=O)OC)oc2=O)c1 (mixture of isomers)
3000

Form field: reported IC50 of CCCCc1ccc2cc(C=C(C)C(=O)c3c(O)cc(C(C)CC/C=C/NC(=O)OC)oc3=O)sc2c1 (mixture of isomers)
1000

Look up IC50 for this molecule: COC(=O)N/C=C/CCCc1cc(O)c(C(=O)C(C)=Cc2ccc(CCC(C)C)s2)c(=O)o1 (mixture of isomers)
400

I have this molecule here, CCOc1ccc(C=C(C)C(=O)c2c(O)cc(C(C)CC/C=C/NC(=O)OC)oc2=O)s1 (mixture of isomers) , and I need its recorded IC50.
500

Look up IC50: CCCCc1ccc(C=C(CC)C(=O)c2c(O)cc(C(C)CC/C=C/NC(=O)OC)oc2=O)s1 (mixture of isomers)
300

* * *

Hi there, I'd appreciate the recorded IC50 for every entry that follows.
SUBJECT_OF_TEST: E. coli RNA polymerase σ^70 holoenzyme (Escherichia coli, UniProt P0A8T7+P0A8V2)
Sequence (P0A8T7 whole entry): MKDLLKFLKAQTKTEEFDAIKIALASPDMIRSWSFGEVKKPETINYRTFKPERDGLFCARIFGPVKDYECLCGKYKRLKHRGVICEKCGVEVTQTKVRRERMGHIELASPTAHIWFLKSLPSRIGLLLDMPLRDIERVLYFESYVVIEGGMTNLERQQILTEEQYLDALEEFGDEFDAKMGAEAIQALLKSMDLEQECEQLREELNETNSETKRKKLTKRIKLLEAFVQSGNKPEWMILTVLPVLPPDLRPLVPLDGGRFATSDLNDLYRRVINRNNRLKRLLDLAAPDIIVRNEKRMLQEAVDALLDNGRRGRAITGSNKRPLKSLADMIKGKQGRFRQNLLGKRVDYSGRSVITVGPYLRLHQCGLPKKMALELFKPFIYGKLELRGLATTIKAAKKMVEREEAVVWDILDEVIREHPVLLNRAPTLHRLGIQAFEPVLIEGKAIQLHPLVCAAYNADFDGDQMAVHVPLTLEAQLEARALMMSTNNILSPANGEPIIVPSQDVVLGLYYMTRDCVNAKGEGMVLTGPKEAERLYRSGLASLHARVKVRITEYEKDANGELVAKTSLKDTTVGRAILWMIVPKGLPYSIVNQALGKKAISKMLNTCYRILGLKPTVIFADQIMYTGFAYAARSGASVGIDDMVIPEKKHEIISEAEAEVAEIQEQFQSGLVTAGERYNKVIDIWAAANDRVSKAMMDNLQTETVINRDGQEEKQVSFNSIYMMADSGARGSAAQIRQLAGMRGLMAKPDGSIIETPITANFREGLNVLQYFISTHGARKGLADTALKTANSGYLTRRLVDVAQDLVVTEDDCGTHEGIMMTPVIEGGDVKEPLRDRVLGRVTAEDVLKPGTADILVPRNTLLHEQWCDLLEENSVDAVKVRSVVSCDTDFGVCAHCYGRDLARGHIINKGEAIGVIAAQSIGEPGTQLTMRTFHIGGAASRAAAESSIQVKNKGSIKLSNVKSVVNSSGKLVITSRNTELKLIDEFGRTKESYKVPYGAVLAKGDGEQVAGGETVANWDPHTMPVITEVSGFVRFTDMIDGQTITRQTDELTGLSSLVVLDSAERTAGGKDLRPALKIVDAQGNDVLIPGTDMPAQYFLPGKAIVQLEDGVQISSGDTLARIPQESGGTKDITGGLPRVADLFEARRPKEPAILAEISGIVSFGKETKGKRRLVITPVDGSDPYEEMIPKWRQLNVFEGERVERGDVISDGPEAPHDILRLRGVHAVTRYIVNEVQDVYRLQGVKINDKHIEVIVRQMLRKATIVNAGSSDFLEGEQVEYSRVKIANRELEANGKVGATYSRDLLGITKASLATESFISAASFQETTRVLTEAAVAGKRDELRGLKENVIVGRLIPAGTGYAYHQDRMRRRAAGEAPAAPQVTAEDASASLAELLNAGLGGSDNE
Sequence (P0A800 whole entry, further chain): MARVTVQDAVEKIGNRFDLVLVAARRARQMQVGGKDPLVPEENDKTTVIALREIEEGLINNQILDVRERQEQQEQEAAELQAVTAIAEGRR
Sequence (P0A8V2 whole entry): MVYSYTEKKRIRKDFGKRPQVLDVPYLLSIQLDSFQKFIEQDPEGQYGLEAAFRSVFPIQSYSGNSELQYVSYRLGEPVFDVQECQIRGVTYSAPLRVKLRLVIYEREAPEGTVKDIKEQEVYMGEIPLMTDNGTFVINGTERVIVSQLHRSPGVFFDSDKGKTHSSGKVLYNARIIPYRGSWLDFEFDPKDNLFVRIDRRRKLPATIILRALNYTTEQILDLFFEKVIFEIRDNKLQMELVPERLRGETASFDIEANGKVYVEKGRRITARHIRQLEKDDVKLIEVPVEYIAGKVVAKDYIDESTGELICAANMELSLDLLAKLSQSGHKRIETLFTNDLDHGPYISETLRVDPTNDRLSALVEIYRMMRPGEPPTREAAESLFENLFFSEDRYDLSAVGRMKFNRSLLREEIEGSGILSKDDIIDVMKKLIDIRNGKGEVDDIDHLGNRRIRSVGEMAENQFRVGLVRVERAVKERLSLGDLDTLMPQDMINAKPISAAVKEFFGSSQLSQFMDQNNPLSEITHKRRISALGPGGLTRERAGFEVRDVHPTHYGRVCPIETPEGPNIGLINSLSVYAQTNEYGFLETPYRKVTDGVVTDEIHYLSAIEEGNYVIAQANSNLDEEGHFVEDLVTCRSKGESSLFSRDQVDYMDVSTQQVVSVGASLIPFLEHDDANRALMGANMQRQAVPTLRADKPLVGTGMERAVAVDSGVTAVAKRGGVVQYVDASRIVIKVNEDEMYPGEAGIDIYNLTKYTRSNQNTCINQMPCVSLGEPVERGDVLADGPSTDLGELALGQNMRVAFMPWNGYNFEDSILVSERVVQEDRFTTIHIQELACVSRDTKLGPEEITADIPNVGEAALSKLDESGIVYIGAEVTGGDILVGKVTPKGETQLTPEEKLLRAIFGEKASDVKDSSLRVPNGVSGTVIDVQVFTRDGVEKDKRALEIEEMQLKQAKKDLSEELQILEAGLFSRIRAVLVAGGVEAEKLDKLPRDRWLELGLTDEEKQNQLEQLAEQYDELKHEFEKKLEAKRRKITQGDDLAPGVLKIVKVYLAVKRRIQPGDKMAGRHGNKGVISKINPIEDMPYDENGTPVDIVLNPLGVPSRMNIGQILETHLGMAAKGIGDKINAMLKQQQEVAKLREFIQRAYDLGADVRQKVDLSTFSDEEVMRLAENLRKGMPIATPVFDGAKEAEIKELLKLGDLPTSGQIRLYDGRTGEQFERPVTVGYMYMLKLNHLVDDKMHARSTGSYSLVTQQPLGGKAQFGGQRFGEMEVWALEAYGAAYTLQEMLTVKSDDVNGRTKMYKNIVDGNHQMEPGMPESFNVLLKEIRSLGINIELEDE
Sequence (P00579 whole entry, further chain): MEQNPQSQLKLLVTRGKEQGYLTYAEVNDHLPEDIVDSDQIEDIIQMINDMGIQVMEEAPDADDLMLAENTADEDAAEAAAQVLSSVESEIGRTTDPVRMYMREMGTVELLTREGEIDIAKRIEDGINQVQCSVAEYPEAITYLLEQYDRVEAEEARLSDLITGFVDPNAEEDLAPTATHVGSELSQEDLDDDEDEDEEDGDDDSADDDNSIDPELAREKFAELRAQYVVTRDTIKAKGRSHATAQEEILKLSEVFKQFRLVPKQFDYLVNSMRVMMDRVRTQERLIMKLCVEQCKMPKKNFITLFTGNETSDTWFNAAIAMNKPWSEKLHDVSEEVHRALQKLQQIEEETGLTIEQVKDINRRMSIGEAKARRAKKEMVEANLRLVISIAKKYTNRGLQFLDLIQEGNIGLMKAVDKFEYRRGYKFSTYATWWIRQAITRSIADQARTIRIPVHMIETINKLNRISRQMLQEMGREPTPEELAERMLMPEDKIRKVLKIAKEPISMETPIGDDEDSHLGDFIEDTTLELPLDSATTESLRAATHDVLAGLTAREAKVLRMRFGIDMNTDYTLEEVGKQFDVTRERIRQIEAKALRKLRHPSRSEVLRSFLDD
Sequence (P0A7Z4 whole entry, further chain): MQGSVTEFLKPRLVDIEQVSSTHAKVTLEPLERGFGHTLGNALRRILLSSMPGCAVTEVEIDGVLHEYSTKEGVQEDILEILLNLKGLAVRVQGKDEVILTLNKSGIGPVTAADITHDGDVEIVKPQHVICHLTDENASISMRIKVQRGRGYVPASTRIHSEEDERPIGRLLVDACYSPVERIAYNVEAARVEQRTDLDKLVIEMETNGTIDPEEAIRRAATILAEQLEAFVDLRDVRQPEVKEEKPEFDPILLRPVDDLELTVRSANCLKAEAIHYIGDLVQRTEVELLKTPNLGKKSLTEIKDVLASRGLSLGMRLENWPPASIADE
EXPERIMENT_SUMMARY: Fluorescence-detected RNA polymerase assay, E. coli RNA polymerase
SETUP_CONDITIONS: read-out: IC50 E. coli RNAP
I only need the number, in nM, no unit after it.

So what's the measured IC50 for this one? COC(=O)N/C=C/CCCc1cc(O)c(C(=O)C(C)=Cc2ccc(CCCC(F)(F)F)s2)c(=O)o1 (mixture of isomers) [APY90]
30

May I ask what IC50 has been recorded for COC(=O)N/C=C/CCC(C)c1cc(O)c(C(=O)C(C)=Cc2ccc(OCC3CCCC3)cc2)c(=O)o1 (mixture of isomers) [APY52] ?
2000

Which IC50 reading was recorded for the compound CCCCc1ccc2c(c1)cc(C=C(C)C(=O)c1c(O)cc(C(C)CC/C=C/NC(=O)OC)oc1=O)n2C (mixture of isomers) [APY104] ?
8

Please look up its IC50: CCCOc1cccc(C=C(C)C(=O)c2c(O)cc(C(C)CC/C=C/NC(=O)OC)oc2=O)c1 (mixture of isomers) [APY43]
200

Given the compound CCCCc1ccc(C=C(C)C(=O)c2c(O)cc(C(C)CC/C=C/NC(=O)OC)oc2=O)s1 (mixture of isomers) [APY16] , what is its reported IC50?
30

Quick one: IC50 of COC(=O)N/C=C/CCC(C)c1cc(O)c(C(=O)C(C)=Cc2ccc(OCC(C)(C)C)cc2)c(=O)o1 (mixture of isomers) [APY55] ?
40

Using the record for CCCCCc1ccc(C=C(C)C(=O)c2c(O)cc(C(C)CC/C=C/NC(=O)OC)oc2=O)s1 (mixture of isomers) [APY59] , report its IC50.
10

Quick one: IC50 for COC(=O)N/C=C/CCC(C)c1cc(O)c(C(=O)C(C)=Cc2ccc(OCCC(F)(F)F)s2)c(=O)o1 (mixture of isomers) [APY139] ?
30

# IC50 lookup, item CCCOCc1ccc(C=C(C)C(=O)c2c(O)cc(C(C)CC/C=C/NC(=O)OC)oc2=O)s1 (mixture of isomers) [APY109]
80

Which IC50 is reported for this compound? CCCCCCc1coc(C=C(C)C(=O)c2c(O)cc(C(C)CC/C=C/NC(=O)OC)oc2=O)c1 (mixture of isomers) [APY19]
7

Fill in the blank: the reported IC50 of CCCCc1ccc2cc(C=C(C)C(=O)c3c(O)cc(C(C)CC/C=C/NC(=O)OC)oc3=O)oc2c1 (mixture of isomers) [APY84] is ____.
2

I'd like to know its IC50. The compound in question is COC(=O)N/C=C/CCC(C)c1cc(O)c(C(=O)C(C)=Cc2ccc(CCC3CCCCC3)s2)c(=O)o1 (mixture of isomers) [APY62]
10

Consider the compound shown here: COC(=O)N/C=C/CCC(C)c1cc(O)c(C(=O)C(C)=Cc2cc(Br)c(CC(C)C)s2)c(=O)o1 (mixture of isomers) [APY120] What is its recorded IC50?
20
